Biological target: Alpha RBD
READOUT_NAME: pKd
Give bare numbers, as −log10 of the molar value.

# input Please look up its pKd: C1 (VHH) VHH: QVQLVESGGGLVQPGGSLRLSCAASGFTNDFYSIAWFRQAPGKEREGVSWLSVSDNTPTYVDSVKDRFTISRHNANNTVYLQMNMLKPEDTAIYYCAAGRFAGRDTWPSSYDYWGQGTQVTVSS
# output 9.14

# input Please look up its pKd: H3 (VHH) VHH: QVQLVESGGGLVKTGGSLRLSCAASGRTFSTYSMGWFRQAPGKEREFVAGMRWTGSSTFYSDSVKGRFTVSRNNAKDTVYLHMNSLKPEDTAVYYCAITTIVRAYYTEYTEADFGSWGQGTQVTVSS
# output 9.99

Could you report pKd for every entry in the following list?
1. F2 (VHH, also called VHH F2) VHH: QVQLVESGGGLVQAGGSLRLACIASGRTFHSYVMAWFRQAPGKEREFVAAISWSSTPTYYGESVKGRFTISRDNAKNTVYLQMNRLKPEDTAVYFCAADRGESYYYTRPTEYEFWGQGTQVTVSS
2. C5 (VHH, also called VHH C5) VHH: QVQLVESGGGSVQAGGSLTLSCVASGVTLGRHAIGWFRQAPGKERERVSCIRTFDGITSYVESTKGRFTISSNNAMNTVYLQMNSLKPEDTAVYFCALGVTAACSDNPYFWGQGTQVTVSS

# output
1: 10.33; 2: 8.60

Hello, the source for this data is patent US20230374116A1, in case you need it.
